Read-out: Monocyte Chemoattractant Protein-1 (MCP1), CCL2 (gene 6347)
Experiment: BSK_4H_MCP1: BioMAP Diversity Plus: 4H Assay for Monocyte Chemoattractant Protein-1 (MCP1) Biomarker Activity (AID 2283018)
Conditions: primary human endothelial cells (HUVEC); actives raise or lower the signal
Activity calls are given as the source filed them. Rule for the calls: active = hit-call score of the fitted dose curve at least 0.9, where 1 is the maximum; inactive = score below 0.9.
Pick one and only one: active, inactive

In: Which result was noted for this compound in the test: `CCCCCCOC(=O)CCCCC(=O)OCCCCCC`
Out: inactive

In: In this assay, the call recorded for `O=C(Cl)c1c(Cl)c(Cl)c(C(=O)Cl)c(Cl)c1Cl` was what?
Out: inactive

In: Answer briefly: the call reported for `Nc1nc(N)nc(-c2ccccc2)n1` in this assay.
Out: inactive

In: Record lookup: outcome of this test for `CCN1CN(CC)CN(CC)C1` ?
Out: inactive

In: Status in this test for `C=CCCCCCCCCC=O` ?
Out: inactive

In: Please state the recorded outcome for this compound: `O=C(O)C(F)(F)C(F)(F)C(F)(F)C(F)(F)C(=O)O`
Out: inactive

In: Would you mind telling me which call this test gave `CC(C)C(=O)OCCc1ccccc1` ?
Out: inactive

In: Short answer needed: outcome of this test for `CCCCCCCCCCCC(=O)N(C)CC(=O)O` ?
Out: inactive

In: Which outcome was entered for the compound `Fc1ccc(Br)cc1` in this test?
Out: inactive

In: How did this test come out for CCc1cccc(C)c1N(C(=O)CS(=O)(=O)O)C(C)COC (stereo not drawn) ?
Out: inactive

In: Hello, I am checking results. What call was entered for `CC(c1cc(C(C)(C)C)cc(C(C)(C)C)c1O)c1cc(C(C)(C)C)cc(C(C)(C)C)c1O` ?
Out: inactive

In: How was `CCCCCC1=CCCC1=O` classified in this test?
Out: inactive

In: Fill in: this test's call for `CCOC(=O)/C=C\C(=O)OCC` is ___
Out: inactive

In: Call for entry CC(Cl)COP(=O)(OCC(C)Cl)OCC(C)Cl (stereo not drawn) :
Out: inactive

In: What is the recorded call for this compound in the test? `C1CNCCN1`
Out: inactive

In: # outcome recorded in this test, key = `COc1ccc(C(=O)c2ccccc2)c(O)c1`
Out: inactive

In: So what was the verdict on `CC1(C)CC(O)CC(C)(C)N1[O]` in this test?
Out: inactive

In: Given `CC(CCC(=O)O)(c1ccc(O)cc1)c1ccc(O)cc1` , state the outcome it received in this test.
Out: inactive

In: How was CCOC(=O)C1=NN(c2ccc(Cl)cc2Cl)C(C)(C(=O)OCC)C1 (stereo not drawn) classified in this test?
Out: active

In: Assay result, entry `CCOC(=O)C1=NOC(c2ccccc2)(c2ccccc2)C1` — outcome?
Out: inactive

In: Look up the recorded call for `C=CC(=O)OCCCCCCCC(C)C` in this test.
Out: inactive

In: For `CCCCC1C(=O)N(c2ccccc2)N(c2ccccc2)C1=O` , which call appears in the assay record?
Out: inactive

In: Record lookup: outcome of this test for `O=C1CCCCCCCCCCC1` ?
Out: inactive

In: Could you check what this test reported for `C=CC(=O)NCOCCCC` ?
Out: inactive

In: Which outcome was assigned to `Clc1cc(Cl)c(Cl)c(Cl)c1Cl` in this test?
Out: inactive

In: For `CC(C)CCCCCOC(=O)CS` , which call appears in the assay record?
Out: inactive

In: Please indicate how the test categorized `CCCCCCCCCCCC(C)=O` .
Out: active

In: Recorded test call requested for `COC(OC)(C(=O)c1ccccc1)c1ccccc1`
Out: active

In: What was the test verdict on `CC/C=C\C/C=C\C/C=C\CCCCCCCC(=O)OC` ?
Out: active

In: Which outcome was entered for the compound `CCNc1nc(NC(C)(C)C)nc(OC)n1` in this test?
Out: inactive

In: Returns: the outcome recorded for `C=C(C)C(=O)OCCCCCCCCCCCC` in this assay.
Out: inactive

In: What did the test return for `C[N+](C)(C)CCCNS(=O)(=O)C(F)(F)C(F)(F)C(F)(F)C(F)(F)C(F)(F)C(F)(F)C(F)(F)C(F)(F)F` ?
Out: inactive

In: GET /call?item= `Oc1ccc(/C=C/c2cc(O)cc(O)c2)cc1` returns the recorded outcome of this test.
Out: active
